Molecular target: KOR (Homo sapiens, UniProt P41145)
Construct: host or cells: CHO (CHO-hKOR)
Sequence (P41145 whole entry): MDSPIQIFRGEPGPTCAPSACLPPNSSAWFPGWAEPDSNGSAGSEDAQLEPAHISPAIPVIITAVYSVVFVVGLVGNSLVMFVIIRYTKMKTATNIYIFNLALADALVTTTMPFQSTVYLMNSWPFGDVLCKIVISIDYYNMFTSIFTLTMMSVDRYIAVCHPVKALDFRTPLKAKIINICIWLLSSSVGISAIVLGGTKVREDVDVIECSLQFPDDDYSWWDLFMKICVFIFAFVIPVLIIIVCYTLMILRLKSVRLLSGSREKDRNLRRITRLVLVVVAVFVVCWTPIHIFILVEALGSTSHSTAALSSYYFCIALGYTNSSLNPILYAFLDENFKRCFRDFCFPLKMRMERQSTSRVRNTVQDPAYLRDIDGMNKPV
Experiment: [35S]GTPγS binding assay, CHO-hKOR membranes
Format: biochemical
Settings: relative to reference full agonist U69,593; read-out: KOR % stim.
valueKind: Emax (%)
Expressed in %, but write only the number.

{"compound": "CO[C@@]12CC[C@@H](N[C@H](C(=O)O)C(C)C)[C@@H]3Oc4c(O)ccc5c4[C@@]31CCN(C)[C@@H]2C5", "assayTarget": "KOR (Homo sapiens, UniProt P41145)", "Emax [%]": 68}

For record CO[C@@]12CC[C@@H](N[C@@H](CC(N)=O)C(=O)O)[C@@H]3Oc4c(O)ccc5c4[C@@]31CCN(C)[C@@H]2C5 [Compound 11b] the listed Emax is 71

For record CO[C@@]12CC[C@H](N[C@@H](CC(=O)O)C(=O)O)[C@@H]3Oc4c(O)ccc5c4[C@@]31CCN(C)[C@@H]2C5 [Compound 13a] the listed Emax is 83

For record CO[C@@]12CC[C@H](N[C@@H](Cc3ccccc3)C(=O)O)[C@@H]3Oc4c(O)ccc5c4[C@@]31CCN(C)[C@@H]2C5 the listed Emax is 39

For record CC[C@H](N[C@H]1CC[C@@]2(OC)[C@H]3Cc4ccc(O)c5c4[C@@]2(CCN3C)[C@H]1O5)C(=O)O [Compound 19a] the listed Emax is 61

For record CO[C@@]12CC[C@@H](N[C@@H](Cc3ccc(O)cc3)C(=O)O)[C@@H]3Oc4c(O)ccc5c4[C@@]31CCN(C)[C@@H]2C5.Cl.Cl the listed Emax is 60

---

Target: MOR (Homo sapiens, UniProt P35372)
Construct: host or cells: CHO (CHO-hMOR)
Sequence (P35372 whole entry): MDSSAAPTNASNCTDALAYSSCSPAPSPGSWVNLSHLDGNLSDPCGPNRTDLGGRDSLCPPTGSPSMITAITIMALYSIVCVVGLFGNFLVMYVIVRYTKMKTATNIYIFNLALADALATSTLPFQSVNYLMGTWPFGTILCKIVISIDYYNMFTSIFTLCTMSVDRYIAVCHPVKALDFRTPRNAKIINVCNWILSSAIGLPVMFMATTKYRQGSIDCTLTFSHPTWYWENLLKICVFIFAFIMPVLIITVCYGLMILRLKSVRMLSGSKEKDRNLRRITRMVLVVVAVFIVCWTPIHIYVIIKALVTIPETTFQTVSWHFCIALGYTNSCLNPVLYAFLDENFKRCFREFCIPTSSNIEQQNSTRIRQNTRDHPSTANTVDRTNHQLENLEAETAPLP
Experiment: [35S]GTPγS binding assay, CHO-hMOR membranes
Type: biochemical
Conditions: [35S]GTPγS, CHO human MOR membranes; read-out: MOR EC50
pEC50 for assorted compounds
Answer as the number alone; pEC50 is minus log10 of concentration in mol/L.

{"compound": "CO[C@@]12CC[C@H](N[C@@H](CCC(N)=O)C(=O)O)[C@@H]3Oc4c(O)ccc5c4[C@@]31CCN(C)[C@@H]2C5 [Compound 12a]", "assayTarget": "MOR (Homo sapiens, UniProt P35372)", "valueKind": "pEC50", "observedValue": 8.64}

# CO[C@@]12CCC(N[C@@H](CCC(=O)O)C(=O)O)[C@@H]3Oc4c(O)ccc5c4[C@@]31CCN(C)[C@@H]2C5 (stereo in doubt) [Compound 14a] with MOR (Homo sapiens, UniProt P35372): pEC50 is 8.51

# CO[C@@]12CC[C@H](N[C@@H](Cc3ccccc3)C(=O)O)[C@@H]3Oc4c(O)ccc5c4[C@@]31CCN(C)[C@@H]2C5 with MOR (Homo sapiens, UniProt P35372): pEC50 is 9.42

# CO[C@@]12CC[C@@H](N[C@@H](Cc3ccc(O)cc3)C(=O)O)[C@@H]3Oc4c(O)ccc5c4[C@@]31CCN(C)[C@@H]2C5.Cl.Cl with MOR (Homo sapiens, UniProt P35372): pEC50 is 7.61

---

Molecular target: MOR (Homo sapiens)
Construct: host or cells: CHO (CHO-hMOR)
Assay: [35S]GTPγS binding assay, CHO-hMOR membranes
Format: biochemical
Conditions: relative to reference full agonist DAMGO; read-out: MOR % stim.
valueKind: Emax

Before answering, review these 3 worked examples.
{"compound": "CO[C@@]12CC[C@@H](N[C@H](C(=O)O)C(C)C)[C@@H]3Oc4c(O)ccc5c4[C@@]31CCN(C)[C@@H]2C5", "assayTarget": "MOR (Homo sapiens)", "observedValue": "~80%"}
{"compound": "CO[C@@]12CC[C@H](N[C@H](C(=O)N[C@@H](Cc3ccc(O)cc3)C(=O)O)C(C)C)[C@@H]3Oc4c(O)ccc5c4[C@@]31CCN(C)[C@@H]2C5 [Compound 22a]", "assayTarget": "MOR (Homo sapiens)", "observedValue": "~80%"}
{"compound": "CO[C@@]12CC[C@@H](N[C@H](C(=O)N[C@@H](Cc3ccc(O)cc3)C(=O)O)C(C)C)[C@@H]3Oc4c(O)ccc5c4[C@@]31CCN(C)[C@@H]2C5 [Compound 22b]", "assayTarget": "MOR (Homo sapiens)", "observedValue": "~70%"}

Turning now to a further compound:
# CC[C@H](N[C@@H]1CC[C@@]2(OC)[C@H]3Cc4ccc(O)c5c4[C@@]2(CCN3C)[C@H]1O5)C(=O)O [Compound 19b] with MOR (Homo sapiens): Emax is ~80%
